Test system: MDA-MB-435
Test: NCI tumour cell line growth inhibition, 48 h
Active and inactive are the calls of the source. Cut-off read from the data, not from the text of the source: active = GI50 up to about 1.1 µM and inactive = higher.
Result category, one only: 1 (yes) = active, 0 (no) = inactive

## Task # outcome recorded in this test, key = `O=[N+]([O-])c1cccc2nc3ccccc3c(NCCC[N+]3([O-])CCCCC3)c12`
## Result 1 (yes)

## Task Answer briefly: the call reported for COc1cc2c3c(c1O)C1(C=CC(=O)C=C1)CC3N(C)CC2 (configuration not stated) in this assay.
## Result 0 (no)

## Task Assay result, entry C=C1C2C[C@@H]3O[C@H]4C[C@H]5O[C@@]6(C[C@@H]7O[C@]8(C[C@H](C)[C@@H]9O[C@@H]%10CC(C=O)O[C@@H]%10C[C@@H]9O8)C[C@H](C)[C@@H]7O6)C[C@H]5O[C@H]4[C@H](C)[C@H]3OC(=O)C[C@H]3CC[C@@H]4OC5[C@H]6O[C@]7(CC[C@H]8CC(=C)[C@H](CC[C@@H](C[C@H]1C)O2)O8)CC6O[C@@H]5[C@@H](O7)[C@H]4O3 (some centres not stated) — outcome?
## Result 1 (yes)

## Task # lookup: test call for COc1cc2c(cc1OC)C1c3ccccc3CCN1CC2 (configuration not stated)
## Result 0 (no)

## Task Please share the test call associated with `CC(C)(C)C1=CC(O)(c2c3ccccc3c(C3(O)C=C(C(C)(C)C)C(=O)C(C(C)(C)C)=C3)c3ccccc23)C=C(C(C)(C)C)C1=O` .
## Result 1 (yes)

## Task Entry `OC1CCN(c2c3ccccc3nc3ccccc23)CC1` : call = ?
## Result 0 (no)

## Task Please indicate how the test categorized `c1ccc(C2=NN(c3nc4ccccc4s3)C3(CCCCC3)N2)nc1` .
## Result 0 (no)

## Task Each compound tested received a call. Report the one for O=C(c1ccccc1)N1CCC(Nc2nccs2)O1 (configuration not stated) .
## Result 0 (no)

## Task Which outcome was entered for the compound `O=C1CNC(=O)/C(=C/c2c[nH]c3ccccc23)N1` in this test?
## Result 0 (no)

## Task GET /call?item= `C[C@H]1S[C@H](c2c(F)cccc2F)n2c1nc1ccccc12` returns the recorded outcome of this test.
## Result 0 (no)

## Task Please share the test call associated with `Cc1nnc2cc(C(=O)O)c3ccccc3n2c1=O` .
## Result 0 (no)

## Task How did this test come out for `CC1=CC(=O)/C(=C/NC(=S)Nc2ccc(S(N)(=O)=O)cc2)C(=O)O1` ?
## Result 0 (no)

## Task Test call for this compound, please: Cc1ccc(C)c(NC(=O)C(Cc2c[nH]c3ccccc23)NC(=O)OCc2ccccc2)c1 (configuration not stated)
## Result 0 (no)

## Task Recorded test outcome, item O=C(CCCCCCCCC(=O)NN1C(=O)/C(=C\c2ccc(O)c(O)c2)SC1c1c(O)ccc2ccccc12)NN1C(=O)C(=Cc2ccc(O)c(O)c2)SC1c1c(O)ccc2ccccc12 (configuration not stated)
## Result 0 (no)

## Task Which outcome was entered for the compound `Nc1nc(Nc2ccccc2)sc1C(=O)c1cccs1` in this test?
## Result 0 (no)

## Task Please state the recorded outcome for this compound: `COc1cc(-c2oc3c(OC)c(O)c(OC)c(O)c3c(=O)c2OC)cc(OC)c1OC`
## Result 0 (no)

## Task // param item: CC(C)(C)[Si](C)(C)OCC1CCC(n2cnc3c(N)ncnc32)O1 (configuration not stated) ; yields the recorded call
## Result 0 (no)

## Task I'd appreciate the recorded outcome for Cc1ccc(S(=O)(=O)OC2C(C3COC(C)(C)O3)OC3OC(C)(C)OC32)cc1 (configuration not stated) from this test.
## Result 0 (no)

## Task How did this test come out for `c1ccc2sc(SSSc3nc4ccccc4s3)nc2c1` ?
## Result 0 (no)

## Task How was `CC(=O)/C(C)=N/NC(=O)c1ccccc1O` classified in this test?
## Result 0 (no)

## Task Please let me know the test result on file for `CC1(C)CC(=O)c2c(nc3ccc4ccccc4c3c2-c2ccc(NC(=O)CCC(=O)Nc3ccc(-c4c5c(nc6ccc7ccccc7c46)CC(C)(C)CC5=O)cc3)cc2)C1` .
## Result 0 (no)

## Task Which result was noted for this compound in the test: `O=c1c2cccnc2n2n1Cc1ccccc1C2`
## Result 0 (no)

## Task Look up the recorded call for `COc1cccc2c(Nc3ccc(S(=O)(=O)N=C(N)N)cc3)c3ccc([N+](=O)[O-])cc3nc12` in this test.
## Result 0 (no)

## Task I'd appreciate the recorded outcome for `Cn1ncc2c(NCCc3ccccc3)nc(Cl)nc21` from this test.
## Result 0 (no)

## Task What did this assay record as the result for `N#C/C(=C\c1ccc(Br)cc1)c1nc(-c2cc3ccccc3oc2=O)cs1` ?
## Result 0 (no)

## Task For CCOP1(=O)C=C(Sc2ccc([N+](=O)[O-])cc2[N+](=O)[O-])C(C)(C)O1 (configuration not stated) , what call appears in the results of this test?
## Result 0 (no)

## Task Per the records of this test, what outcome belongs to O=C1CSC2=NC3=C(CSC/C3=C\c3ccccc3)C(c3ccccc3)N12 (configuration not stated) ?
## Result 0 (no)

## Task Kindly provide the recorded test outcome for the following compound: `N#Cc1c(N2CCOCC2)ncn(-c2ccccc2)c1=O`
## Result 0 (no)

## Task Which outcome was entered for the compound COC(=O)C(Cc1nc2ccccc2nc1O)C(=O)C(=O)Nc1cc(C(F)(F)F)ccc1Cl (configuration not stated) in this test?
## Result 0 (no)

## Task Dear all, I need the recorded test outcome for N=C(N)NCCCC(NC(=O)OCCCCn1ccc(N)nc1=O)C(=O)O (configuration not stated) , thank you.
## Result 0 (no)

## Task Test call, this compound: `COc1ccccc1/N=N/c1c(O)c(S(=O)(=O)O)cc2cc(S(=O)(=O)O)ccc12`
## Result 0 (no)

## Task Which outcome was assigned to `C=CCN1CCN([C@H](c2ccc(C(=O)N(CC)CC)cc2)c2cccc(OC)c2)CC1` in this test?
## Result 0 (no)
